The reported measurements were obtained from paper PMC10397247.

# subject-of-test: T1, 4H486-AA
# T1 chain: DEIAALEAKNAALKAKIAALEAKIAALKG
# protocol-text: two-hybrid library CCmax;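 further: natural log of median RNA to DNA barcode read ratio; higher means stronger binding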
# run-conditions: mean of both orientations
measured-metric: interaction score

[I] DEIAALEAKIAALKAKIAALEAENAALEG [4H355-AA]
[II] DKNAALKAEIAALKAKNAALKAEIAALEG [4H3705-AA]
Task: Pick one: I or II . Which has the bigger interaction score number? Record your answer as the label of the chosen record.
Result: I
(I: -0.342, II: -1.65)
